Recorded measurements of melting point, one per entry

COC(=O)C(=O)c1ccc(OCCOc2ccc3ccccc3c2)c(Cl)c1; 133 to 134 °C

Task item: What value of melting point has been recorded for this entry: `COC(=O)c1cc(N(C)C)c(N2CCCCC2)c(N(C)C)c1`
Reply: 103 to 105 °C

Task item: What value of melting point has been recorded for this entry: `Nc1ccccc1C(=O)NCCN1CCC2(CC1)C(=O)NCN2c1ccc(F)cc1`
Reply: 195 °C

Task item: What value of melting point has been recorded for this entry: CCCCCCOc1ccc(NC(=O)N(C)c2cccc(-c3ccc(CC4SC(=O)NC4=O)cc3)c2)cc1 (stereo not given)
Reply: 146 to 148 °C

Task item: What value of melting point has been recorded for this entry: `CCOC(=O)c1cnc2c([N+](=O)[O-])cccc2c1Cl`
Reply: 253 to 254 °C

Task item: What value of melting point has been recorded for this entry: `COc1cc(C=NO)c2oc(-c3ccc(OC)c(F)c3)cc2c1`
Reply: 208 to 210 °C

Task item: What value of melting point has been recorded for this entry: `CC(C)(C)c1cc(SCO)cc(C(C)(C)C)c1O`
Reply: 79 to 82 °C

Task item: What value of melting point has been recorded for this entry: COC(Cc1c(Br)cc(Br)c(N)c1Br)C(=O)O (stereo not given)
Reply: 173 to 175 °C

Task item: What value of melting point has been recorded for this entry: CN(C)C1C(O)CC2C3CCc4cc(O)ccc4C3CCC21C (stereo not given)
Reply: 240 to 242 °C

Task item: What value of melting point has been recorded for this entry: `COc1cc(Nc2nccc(Nc3ccc(CCO)cc3)n2)cc(OC)c1OC`
Reply: 172 °C

Task item: What value of melting point has been recorded for this entry: CCOC(=O)c1cc2ccccc2n1CC1CC(=O)N(Cc2ccccc2)C1 (stereo not given)
Reply: 93 to 94 °C

Task item: What value of melting point has been recorded for this entry: `COc1ccc2[nH]c(C(=O)c3ccccc3)c(NC(C)=O)c2c1OC`
Reply: 118 to 120 °C

Task item: What value of melting point has been recorded for this entry: `C#CCN(C)Cc1ccc([N+](=O)[O-])cc1`
Reply: 47 to 49 °C

Task item: What value of melting point has been recorded for this entry: NC1=NC(c2ccc(OC(F)(F)F)cc2)(c2cccc(-c3cncc(F)c3)c2)C2=NCCON12 (stereo not given)
Reply: 120 to 135 °C

Task item: What value of melting point has been recorded for this entry: `N#Cc1ccc2nc(Cl)c3ccccc3c(=O)c2c1`
Reply: 217 to 220 °C

Task item: What value of melting point has been recorded for this entry: `CC(C)C(=O)c1cn(-c2c(Cl)cc(C(F)(F)F)cc2Cl)nc1C#N`
Reply: 168 to 169 °C

Task item: What value of melting point has been recorded for this entry: `COC(=O)/C=C/C=C(\c1ccccc1)c1ccc(OC)cc1`
Reply: 88 to 89.5 °C

---

Recorded measurements of melting point, one per entry

COCCc1ccc(OCC(O)CNCCNC(=O)C2CCCOC2)cc1 (centres undefined); 107 to 108 °C

Task item: What value of melting point has been recorded for this entry: CCOC(=O)C1=C(N)C(OCC)=NS1=O (centres undefined)
Reply: 154 to 155 °C

Task item: What value of melting point has been recorded for this entry: `Cc1ccc(N(C(=O)CCl)c2c(C)cccc2Cl)cc1`
Reply: 113 to 114 °C

Task item: What value of melting point has been recorded for this entry: `O=C1c2ccc([N+](=O)[O-])cc2C(=O)N1c1ccc(C2(c3ccc(N4C(=O)c5ccc([N+](=O)[O-])cc5C4=O)cc3)c3ccccc3-c3ccccc32)cc1`
Reply: 360 to 363 °C

Task item: What value of melting point has been recorded for this entry: `C1=C(c2c[nH]c3ccccc23)CCN(CCCOc2cccc3[nH]ccc23)C1`
Reply: 192 to 194 °C

Task item: What value of melting point has been recorded for this entry: `Cc1cc2c(cc1Br)C(C)(C)C=CC2(C)C`
Reply: 103 to 105 °C

Task item: What value of melting point has been recorded for this entry: `CCOCOCCCc1ccc(C(=O)O)cc1C12CC3CC(CC(C3)C1)C2`
Reply: 115 °C

Task item: What value of melting point has been recorded for this entry: COc1ccccc1OC1(Cl)C=NC(N2CCOCC2)=NC1Cl (centres undefined)
Reply: 180 °C

Task item: What value of melting point has been recorded for this entry: `CC1(N)CN(c2c(F)c(N)c3c(=O)c(C(=O)O)cn(C4CC4)c3c2F)C1`
Reply: 243 to 247 °C
